experiment description: yeast display, Sf9 membrane polyspecificity reagent, FACS + sequencing; frameworks hold sequencing errors
quantity measured: polyreactivity (PSR sort gate)

Example cases with answers are listed next.
# residue sequence, polyreactivity (PSR sort gate)
records = [
    ("QVQLVESGGGLVQAGGSLRLSCAASGYIFGAYAMGWYRPAPGKERELVAGITASGDSTYYADSVKGRFTISRDNAKNTVYLQMNSLKPEDTAVYYCNAQPDIGLYDRQWKEPYEYWGQGTQVTVSS", "low polyreactivity"),
    ("QVQLVESGGGLVQAGGSLRLSCAASGSTFAFNAMGWYRQAPGKERELVATISQSGGSTYYADSVKGRFTISRDNAKNTVYLQMNSLKPEDTAVYYCAKRYWSKWYGRYEYWGQGTQVTVSS", "low polyreactivity"),
    ("QVQLVESGGGLVQAGGSLRLSCAASGIIFFKYGMGWYRQAPGKERELVAAITSGGSTYYADSVKGRFTISRDNAKNTVYLQMNSLKPEDTAVYYCNAQRYWRKVWEYESWGQGTQVTVSS", "low polyreactivity"),
    ("QVQLEESGGGLVQAGGSHRLSCPASGRTFYKNAMGWSRQAPRKERELVAAITSGGSTNYADSVKGRFSISRDNAKNSVYLQMNSLKSEDTAVYYCAAQQFPYYRSRFSYINKYDYWGQGTQVTVSS", "high polyreactivity"),
    ("QVQLVESGGGLVQAGGSLRLSCAASGIIFVYYAMGWYRQAPGKERELVAAISTRGGSTYYADSVKGRFTISRDNAKNTVYLQMNSLKPEDTAVYYCAATYVYRYVPRIPSEAYDYWGQGTQVTVSS", "high polyreactivity"),
]

polyreactivity (PSR sort gate) for QVQLVESGGGLVQAGGSLRLSCAASGFTFYPNAMGWYRQAPGKEWELVAAISRSGSSTYYADSVKGRFTISRDNAKNTVYLQMNSVKPEDTAVYDCNRYGRQYDFYYWGQGTQVTVSS is high polyreactivity

Per the record, QVQLVESGGGLVQAGGSLRLSCAASGGTFDSYAMGWYRQAPGKERELVAAITQSGGRTYYADSVKGRFTISRDNAKNTDYLQMNSLKPEDTAVYYCAAKGITRYGYWGQGTQVTVSS has polyreactivity (PSR sort gate) of high polyreactivity

Value of polyreactivity (PSR sort gate) reported for the sequence QVQLVESGGGLVQAGGSLRLSCAASGITFEYYTMGWYRQAPGKERELVAAITSGGSTYYADSVKGRFTISRDNAKNTVYLQMNSLKPEDTAVYYCNADWSATSGEWTWFQYDYWGQGTQVTVSS is high polyreactivity

polyreactivity (PSR sort gate) in this record for QVQLVESGGGLVQAGGRLRLTCAASGSIFGSYAMGWYRQEPGIERELVAAIRGRGGNTYYADSVKGRFTISRDNAKNTVYLQMNSLKPQDTAVYYCAAQSFAQYGWRYGYWGQGTQVTLSS : high polyreactivity

Data point: QVQLVESGGGLVQAGGSLRLSCAASGRTFYANAMGWYRQAPGKERELVATISSGGRTNYADSVKGRFTISRDNAKNTVYFQMNSLKPEDTAVYYCAKRGPYNRWYGRYDYWGQGTQVTVSS ; polyreactivity (PSR sort gate) = low polyreactivity

polyreactivity (PSR sort gate) for QVQLVESGGGLVQAGGSLRLSCAASGGIYRYYAMGWYRQAPGKERELVAAISTSGTDTYYADSVKGRFTISRDNAKNTVYVQMNSLIPEDTAVYYCAAELYRYGFYEPIYPYSYDYWGQGTQVTVSS is low polyreactivity
